test system: HCT-15 colon; assay: NCI-60 one-dose screen, 48 h (100 = growth as untreated, 0 = no growth, -100 = all killed); details: 10 µM unless noted
Compounds without any hit were thinned out: in the full panel of roughly 83,000, 20% have a hit. The source made the active and inactive calls. How the source made its calls: active means growth percent below 10; inactive means the rest.
reported-property: growth

Consider the following illustrative entries.
[
  {
    "molecule": "C1=C\\CCCCN2CC[C@H]3[C@H](CCCC/C=C\\CCCN4C[C@@H](CCCCC/1)C[C@@H]3C4)C2",
    "result": "25.3% (inactive)"
  },
  {
    "molecule": "COc1ccc(-c2nc(-c3cc(OC)cc(OC)c3)[nH]c2-c2ccc(OC)cc2)cc1",
    "result": "45.3% (inactive)"
  },
  {
    "molecule": "C=C1NC(=O)C(C(C)CC)NC(=O)C2CSCC(NC(=O)CCC(=O)O)C(=O)NC(Cc3ccccc3)C(=O)NC(C)C(=O)NC(CC(C)CC)C(=O)NC(C(=O)NC(Cc3ccccc3)C(=O)N3CCCC3C(=O)N2)C(C)OC(=O)C(CO)NC(=O)C(C(O)COC)N(C)C(=O)C(C(C)C)NC(=O)C(CC(C)CC)NC1=O (stereo not given)",
    "result": "15.8% [6 µM] (inactive)"
  },
  {
    "molecule": "CCCc1n(Cc2ccc3ccccc3n2)cc[n+]1Cc1ccc2ccccc2c1",
    "result": "82% (inactive)"
  }
]

Now look at this entry.
// recorded growth for `Brc1cccc(-n2ncc3c(Nc4ccc(-c5nnc(-c6ccccc6)o5)cc4)ncnc32)c1` : 101% (inactive)
